# Tested on: 648629-189-R-J1-PDC spheroids with HUVEC/MSC, viability;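 further: spheroids exposed to agents for seven days before reading; percent of vehicle control luminescence where 100% = DMSO treated spheroids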
# experimental-protocol: Anticancer human tumor 648629-189-R-J1-PDC patient-derived bladder carcinoma cell line growth inhibition [PI3K]
# measurement-context: compound 0.01 µM; stronger effect = lower value
readout: viability, T/C

> print(dat)
                               smiles.entry                    result
1  CC(C)n1nc(-c2ccc3oc(N)nc3c2)c2c(N)ncnc21  89.7% [middle of 4 runs]
2  COc1c(OCCCN2CCOCC2)ccc2c3n(c(=NC(=O)c4cnc(N)nc4)nc12)CCN3   103% [middle of 8 runs]
3  CCN1CCN(Cc2ccc(Nc3ncc(F)c(-c4cc(F)c5nc(C)n(C(C)C)c5c4)n3)nc2)CC1  96.7% [middle of 4 runs]
